Endpoint: melting point

Specify measured melting point for `C[C@@H](OC(=O)Nc1ccc(-c2c(C#N)c3ccc(OCCN4C(=O)CN(C)C4=O)cc3n2C2CCC2)cc1)C1CC1` .
79 to 81 °C

Specify measured melting point for `N#Cc1c(-c2cnc(NC3CC3)nc2)n(C2CCC2)c2cc(Oc3ncccn3)ccc12` .
227 to 229 °C

Specify measured melting point for COCCOc1ccc2c(C#N)c(-c3ccc(NC(=O)OC4CCOC4)cc3)n(C(C)C)c2c1 (stereo not drawn) .
181 to 183 °C

Specify measured melting point for `CC(C)OC(=O)Nc1ccc(-c2c(C#N)c3ccc(OC4CCOCC4)cc3n2C2CCC2)cc1` .
197 to 199 °C

Specify measured melting point for `CC(C)OC(=O)Nc1ccc(-c2c(C#N)c3cc(OCCn4ccnc4)ccc3n2C2CCC2)cc1` .
185 to 188 °C

Specify measured melting point for N#Cc1c(-c2ccc(NS(=O)(=O)C3CC3)cc2)n(CC2CCCO2)c2cc(OC(F)F)ccc12 (stereo not drawn) .
179 to 180 °C

Specify measured melting point for `CCN(CC)C(=O)Nc1ccc(-c2c(C#N)c3ccc(OCCOC)cc3n2CC)cc1` .
147 to 150 °C

Specify measured melting point for N#Cc1c(-c2ccc(NC(=O)OC(c3ccccc3)C(F)(F)F)cc2)n(C2CCC2)c2cc(Oc3ncccn3)ccc12 (stereo not drawn) .
246 to 248 °C

Specify measured melting point for `C[C@@H](OC(=O)Nc1ccc(-c2c(C#N)c3ccc(C(=O)N4CCCCC4)cc3n2C2CCC2)cc1)C1CC1` .
148 to 150 °C

Specify measured melting point for `CC(C)OC(=O)Nc1ccc(-c2c(C#N)c3cc(C(=O)N4CCCC4)ccc3n2C2CCC2)cc1` .
204 to 205 °C

Specify measured melting point for `CCCS(=O)(=O)Nc1ccc(-c2c(C#N)c3ccc(OCS(C)(=O)=O)cc3n2C2CCC2)cc1` .
266 to 273 °C

Specify measured melting point for CC(OC(=O)Nc1ccc(-c2c(C#N)c3ccc(OC4CCCO4)cc3n2C2CC2)cc1)C1CC1 (stereo not drawn) .
189 to 191 °C

Specify measured melting point for `C[C@@H](OC(=O)Nc1ccc(-c2c(C#N)c3ccc(OCCCCn4cncn4)cc3n2C2CCC2)cc1)C(F)(F)F` .
161 to 162 °C

Specify measured melting point for `N#Cc1c(-c2ccc(Nc3ncccn3)cc2)n(C2CCC2)c2cc(OC3CCOCC3)ccc12` .
209 to 213 °C

Specify measured melting point for `N#Cc1c(-c2ccc(NS(=O)(=O)C3CC3)cc2)n(C2CCC2)c2cc(C(=O)N3CCSCC3)ccc12` .
205 to 207 °C

* * *

Would you mind telling me the reported melting point of each entry?

Specify measured melting point for `C[C@@H](OC(=O)Nc1ccc(-c2c(C#N)c3ccc(C(=O)N4CCOCC4)cc3n2C2CCC2)cc1)C1CC1` .
156 to 158 °C

Specify measured melting point for `CC(C)OC(=O)Nc1ccc(-c2c(C#N)c3ccc(OCCNC4CCC4)cc3n2C2CCC2)cc1` .
221 to 223 °C

Specify measured melting point for `CC(C)CS(=O)(=O)Nc1ccc(-c2c(C#N)c3ccc(-n4ccccc4=O)cc3n2C2CCC2)cc1` .
270 °C (dec.)

Specify measured melting point for `N#Cc1c(-c2ccc(Oc3ccccn3)cc2)n(C2CCC2)c2cc(OC3CCOCC3)ccc12` .
147 to 149 °C

Specify measured melting point for `CC(C)NC(=O)Oc1ccc2c(C#N)c(-c3ccc(NC(=O)O[C@H](C)C4CC4)cc3)n(C3CCC3)c2c1` .
202 to 205 °C

Specify measured melting point for COCCOc1ccc2c(C#N)c(-c3ccc(NC(=O)OC(C)c4ccccc4)cc3)n(C3CC3)c2c1 (stereo not shown) .
76 to 79 °C

Specify measured melting point for `N#Cc1nccnc1Oc1ccc2c(C#N)c(-c3ccc(NS(=O)(=O)NCC4CC4)cc3)n(C3CC3)c2c1` .
189 to 191 °C
